- test_system: Acetylcholinesterase (Homo sapiens) (UniProt P22303)
- Sequence (P22303 whole entry, looked up): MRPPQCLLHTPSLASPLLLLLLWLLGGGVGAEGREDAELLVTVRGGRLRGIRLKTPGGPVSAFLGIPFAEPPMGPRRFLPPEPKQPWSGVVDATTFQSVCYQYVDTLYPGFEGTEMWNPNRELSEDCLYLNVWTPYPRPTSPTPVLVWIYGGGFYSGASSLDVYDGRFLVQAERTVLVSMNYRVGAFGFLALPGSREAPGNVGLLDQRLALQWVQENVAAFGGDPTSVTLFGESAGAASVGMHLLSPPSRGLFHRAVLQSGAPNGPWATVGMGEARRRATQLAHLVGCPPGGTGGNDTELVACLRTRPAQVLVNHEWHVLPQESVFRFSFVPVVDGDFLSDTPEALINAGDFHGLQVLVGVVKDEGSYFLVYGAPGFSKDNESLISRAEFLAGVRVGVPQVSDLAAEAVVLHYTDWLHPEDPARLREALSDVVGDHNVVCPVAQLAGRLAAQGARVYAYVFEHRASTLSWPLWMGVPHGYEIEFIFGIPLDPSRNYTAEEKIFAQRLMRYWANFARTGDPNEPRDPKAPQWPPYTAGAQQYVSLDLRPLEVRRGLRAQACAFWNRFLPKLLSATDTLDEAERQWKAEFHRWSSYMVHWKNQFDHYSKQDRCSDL
- experimental_protocol: Acetylcholinesterase (AChE) small molecule antagonists: colormetric cell-based qHTS assay (AID 1347395); also: nearly all actives have a fitted effect of over 30% in size
- experimental_conditions: SH-SY5Y cells AChE activity, colorimetric (Ellman); series mostly up to 115 µM
- Description: National Center for Advancing Translational Sciences [NCATS] Division of Preclinical Innovation [DPI] U.S. Environmental Protection Agency [EPA] National Institutes of Environmental Health Sciences [NIEHS] National Toxicology Program [NTP] U.S. Food and Drug Administration [FDA] Acetylcholinesterase (AChE) is the primary cholinesterase in the body that hydrolyzes a key neurotransmitter, acetylcholine. Inhibition of AChE activity can lead to neurotoxicity. […]
Inconclusive results are not listed. Activity calls are given as the source filed them. Calls follow the shape of the full dose curve.
Respond only with the outcome that fits, drawn from yes (1) (active), no (0) (inactive)

compound | classification
C[C@]12C=CC(=O)C=C1CC[C@@H]1[C@@H]2CC[C@@]2(C)[C@H]1CC[C@]2(C)O | no (0)
O=[N+]([O-])CCO | no (0)

Query: Name the outcome recorded for CCN(CC)C1CCCCC1 in the assay.
Reply: no (0)

Query: Name the outcome recorded for C=C(Cl)CCl in the assay.
Reply: no (0)

Query: Name the outcome recorded for COc1cccc([C@@]2(O)CCCC[C@@H]2CN(C)C)c1 in the assay.
Reply: no (0)

Query: Name the outcome recorded for O=CCCl in the assay.
Reply: no (0)

Query: Name the outcome recorded for CC(=O)CN(CC(C)=O)N=O in the assay.
Reply: no (0)

Query: Name the outcome recorded for Cc1cccc2sc3nncn3c12 in the assay.
Reply: yes (1)

Query: Name the outcome recorded for CCCOc1nn(C(=O)NS(=O)(=O)c2ccccc2C(=O)OC)c(=O)n1C in the assay.
Reply: no (0)

Query: Name the outcome recorded for CN1C(=O)COc2c(C(=O)NC3CN4CCC3CC4)cc(Cl)cc21 (stereo not given) in the assay.
Reply: yes (1)

Query: Name the outcome recorded for N=C(N)[Se] in the assay.
Reply: no (0)

Query: Name the outcome recorded for COc1ccc(C=O)cc1O in the assay.
Reply: no (0)

Query: Name the outcome recorded for NC1(c2ccccc2)CCCCC1 in the assay.
Reply: no (0)

Query: Name the outcome recorded for CCC(=O)c1ccc(Cl)cc1 in the assay.
Reply: no (0)

Query: Name the outcome recorded for COc1ccc(CN2CCNCC2)c(OC)c1OC in the assay.
Reply: no (0)

Query: Name the outcome recorded for Cc1ccc(-c2nc3ccc(C)cn3c2CC(=O)N(C)C)cc1 in the assay.
Reply: no (0)

Query: Name the outcome recorded for CCOP(=S)(OCC)SCCl in the assay.
Reply: no (0)

Query: Name the outcome recorded for CCOC(=O)c1ncn2c1CN(C)C(=O)c1c(I)cccc1-2 in the assay.
Reply: no (0)

Query: Name the outcome recorded for CC(C)[C@]12CC(=O)[C@H](C)[C@H]1C2 in the assay.
Reply: no (0)

Query: Name the outcome recorded for CC1N=C(N)OC1c1ccccc1 (stereo not given) in the assay.
Reply: no (0)

Query: Name the outcome recorded for CC(C)c1ccc(O)cc1 in the assay.
Reply: no (0)

Query: Name the outcome recorded for O=C(Cl)OCc1ccccc1 in the assay.
Reply: no (0)

Query: Name the outcome recorded for CC(Cc1ccccc1)NCCCCl (stereo not given) in the assay.
Reply: no (0)

Query: Name the outcome recorded for CN1COCN(Cc2cnc(Cl)s2)/C1=N\[N+](=O)[O-] in the assay.
Reply: no (0)

Query: Name the outcome recorded for C[C@H](N)C(=O)c1ccccc1 in the assay.
Reply: no (0)

---

- experimental_protocol: qHTS RealTime-Glo MT Cell Viability Assay in HEK293 cells - 24 hour (AID 1224886); also: nearly all actives have a fitted effect of over 50% in size
- experimental_conditions: RealTime-Glo luminescence; series mostly up to 76.8 µM
Records with an inconclusive call do not appear. The source made the active and inactive calls. Calls come from the whole dose curve; as a rule, active = well fitted cell-killing curve with a large enough effect in the repeat runs; inconclusive = weak or mixed curves, or effect the other way; inactive = flat fitted curve, though single readings scatter.
Respond only with the outcome that fits, drawn from active, inactive

compound | classification
CCOP(=S)(OCC)SCCl | inactive
CON(C)C(=O)Nc1ccc(Br)cc1 | inactive
N=C(N)[Se] | inactive
COc1ccccc1OC | inactive
CC(Cc1ccccc1)NCCn1cnc2c1c(=O)n(C)c(=O)n2C (centres undefined) | active

Query: Name the outcome recorded for CCC1(c2ccccc2)C(=O)N(COC)C(=O)N(COC)C1=O in the assay.
Reply: inactive

Query: Name the outcome recorded for CCC(=O)c1ccc(Cl)cc1 in the assay.
Reply: inactive

Query: Name the outcome recorded for ClCCCCCCCl in the assay.
Reply: inactive

---

- test_system: Estrogen receptor (Homo sapiens)
- experimental_protocol: qHTS assay to identify small molecule agonists of the estrogen receptor alpha (ER-alpha) signaling pathway in the presence of an antagonist (AID 1259383); also: top concentration of the series differs between compounds; % is scaled to controls: 0 for no effect and ±100 for the full control effect; nearly all actives have a fitted effect of over 15% in size
- experimental_conditions: VM7Luc4E2 cells, ERE-luciferase, +ICI-182,780, 22 h; series mostly up to 92.4 µM
Activity calls are given as the source filed them. Calls follow the shape of the full dose curve.
test_readout: Potency

compound | Potency
CCOP(=S)(OCC)Oc1ccc(Cl)cc1Cl | inactive
C=C1C[C@@H]2[C@H](CC[C@]3(C)C(=O)CC[C@@H]23)[C@@]2(C)C=CC(=O)C=C12 | inactive
C(COCC1CO1)OCC1CO1 (stereo unspecified) | inactive
CC(C)(C1CCC(O)CC1)C1CCC(O)CC1 (stereo unspecified) | inactive

Query: // fetch Potency; item: O=C(Cl)OCc1ccccc1 ; system: Estrogen receptor (Homo sapiens)
Reply: inactive

Query: // fetch Potency; item: COP(=O)(O)OC ; system: Estrogen receptor (Homo sapiens)
Reply: inactive

Query: // fetch Potency; item: CN(CCO)CCO ; system: Estrogen receptor (Homo sapiens)
Reply: inactive

Query: // fetch Potency; item: O=C/C=C/c1ccco1 ; system: Estrogen receptor (Homo sapiens)
Reply: inactive

---

- experimental_protocol: qHTS assay for identifying genotoxic compounds that show differential cytotoxicity against isogenic chicken DT40 cell lines with known DNA damage response pathways - wild type cell line (AID 743012); also: nearly all actives have a fitted effect of over 60% in size
- experimental_conditions: DT40 wild type chicken cells viability, CellTiter-Glo, 40 h; series mostly up to 68.4 µM
Records with an inconclusive call do not appear. The source made the active and inactive calls. The call rests on the fitted dose curve; in most records, active means well fitted cell-killing curve with a large enough effect in the repeat runs; inconclusive means weak or mixed curves, or effect the other way; inactive means no such curve, though single readings can be large or run the other way.
Respond only with the outcome that fits, drawn from True for active, False for inactive

molecule | classification
Cc1ccc(S(=O)(=O)N[C@@H](CCCCN)C(=O)CCl)cc1 | True
ClC(Cl)(Cl)Cl | False
O=[N+]([O-])CCO | False
Cn1c(CCCC(=O)O)nc2cc(N(CCCl)CCCl)ccc21 | True
Oc1ccc2c3c1O[C@H]1[C@@H](O)C=C[C@H]4[C@@H](C2)NCC[C@@]341 | False

Query: Name the outcome recorded for CC(=NC#N)N(C)Cc1ccc(Cl)nc1 in the assay.
Reply: False

Query: Name the outcome recorded for C=C1C[C@@H]2[C@H](CC[C@]3(C)C(=O)CC[C@@H]23)[C@@]2(C)C=CC(=O)C=C12 in the assay.
Reply: True

Query: Name the outcome recorded for OP(O)c1ccccc1 in the assay.
Reply: False

Query: Name the outcome recorded for N=C(N)[Se] in the assay.
Reply: True

Query: Name the outcome recorded for CC(C)(C)C(=O)Cl in the assay.
Reply: False

Query: Name the outcome recorded for O=C(Cl)c1ccccc1 in the assay.
Reply: False

Query: Name the outcome recorded for CCC1(c2ccccc2)CCC(=O)NC1=O (stereo not given) in the assay.
Reply: False

Query: Name the outcome recorded for S=C=S in the assay.
Reply: False

Query: Name the outcome recorded for C[C@]12C=CC(=O)C=C1CC[C@@H]1[C@@H]2CC[C@@]2(C)[C@H]1CC[C@]2(C)O in the assay.
Reply: True

Query: Name the outcome recorded for CC1N=C(N)OC1c1ccccc1 (stereo not given) in the assay.
Reply: False

Query: Name the outcome recorded for CC(O)CCl (stereo not given) in the assay.
Reply: False

Query: Name the outcome recorded for [O-][Br+2]([O-])O in the assay.
Reply: False

---

- experimental_protocol: qHTS assay for identifying genotoxic compounds that show differential cytotoxicity against isogenic chicken DT40 cell lines with known DNA damage response pathways - Rev3 mutant cell line (AID 743014); also: % is scaled to controls: 0 for no effect and ±100 for the full control effect; nearly all actives have a fitted effect of over 55% in size
- experimental_conditions: chicken DT40 Rev3-/- viability, CellTiter-Glo, 40 h; series mostly up to 68.4 µM
Inconclusive results are not listed. Active and inactive are the calls of the source. Calls come from the whole dose curve; as a rule, active = well fitted cell-killing curve with a large enough effect in the repeat runs; inconclusive = weak or mixed curves, or effect the other way; inactive = no such curve, though single readings can be large or run the other way.

molecule | outcome
CCC1(c2ccccc2)CCC(=O)NC1=O (stereo not drawn) | inactive
ClC(Cl)(Cl)Cl | inactive
Cc1cccc2sc3nncn3c12 | inactive

---

- test_system: Estrogen receptor (Homo sapiens) (UniProt P03372)
- Sequence (P03372 whole entry, looked up): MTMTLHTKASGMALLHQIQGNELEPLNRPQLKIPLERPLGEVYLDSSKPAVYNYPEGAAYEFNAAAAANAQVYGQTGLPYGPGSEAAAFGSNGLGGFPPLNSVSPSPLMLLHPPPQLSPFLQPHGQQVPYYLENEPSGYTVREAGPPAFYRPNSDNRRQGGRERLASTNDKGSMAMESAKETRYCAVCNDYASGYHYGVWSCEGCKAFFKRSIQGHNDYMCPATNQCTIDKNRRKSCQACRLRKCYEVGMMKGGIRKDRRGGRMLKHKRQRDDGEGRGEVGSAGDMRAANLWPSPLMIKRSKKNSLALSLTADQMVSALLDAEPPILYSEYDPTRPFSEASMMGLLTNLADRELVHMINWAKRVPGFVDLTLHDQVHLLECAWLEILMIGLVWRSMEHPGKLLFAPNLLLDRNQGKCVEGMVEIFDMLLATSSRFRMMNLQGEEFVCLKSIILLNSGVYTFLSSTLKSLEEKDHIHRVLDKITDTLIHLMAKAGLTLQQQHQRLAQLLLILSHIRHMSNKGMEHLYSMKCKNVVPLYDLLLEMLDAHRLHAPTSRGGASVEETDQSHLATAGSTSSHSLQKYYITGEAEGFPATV
- experimental_protocol: qHTS assay to identify small molecule antagonists of the estrogen receptor alpha (ER-alpha) signaling pathway (AID 743069); also: % is scaled to controls: 0 for no effect and ±100 for the full control effect
- experimental_conditions: HEK293 ER-alpha-UAS-bla, beta-lactamase ratio, antagonist mode; series mostly up to 69.4 µM
- Excerpt: National Center for Advancing Translational Sciences [NCATS] NIH Chemical Genomics Center [NCGC] U.S. Environmental Protection Agency [EPA] National Institutes of Environmental Health Sciences [NIEHS] National Toxicology Program [NTP] U.S. Food and Drug Administration [FDA] Estrogen receptor (ER), a nuclear hormone receptor, plays an important role in development, metabolic homeostasis and reproduction. […]
Inconclusive results are not listed. Activity calls are given as the source filed them. Calls come from the whole dose curve; as a rule, active = well fitted curve in the direction sought with a large enough effect in the signal ratio in the repeat runs (not every such curve was filed as active); inconclusive = weak or mixed curves, or effect the other way; inactive = no such curve, though single readings can be large or run the other way; the % refers to the signal ratio.
Respond only with the outcome that fits, drawn from active, inactive

The following compounds have reported results that may help.
compound | test_system | classification
NC(=O)OCCCc1ccccc1 | Estrogen receptor (Homo sapiens) (UniProt P03372) | inactive
CN(CCO)CCO | Estrogen receptor (Homo sapiens) (UniProt P03372) | inactive
Nc1c(Cl)c(F)nc(OCC(=O)O)c1Cl | Estrogen receptor (Homo sapiens) (UniProt P03372) | inactive
C=C(C)[C@H]1CN[C@H](C(=O)O)[C@H]1CC(=O)O | Estrogen receptor (Homo sapiens) (UniProt P03372) | inactive
O=C/C=C/c1ccco1 | Estrogen receptor (Homo sapiens) (UniProt P03372) | inactive

Query: Name the outcome recorded for ClCC1CO1 (configuration not stated) in the assay.
Reply: inactive

Query: Name the outcome recorded for O=c1[nH]oc2c1CCNC2 in the assay.
Reply: inactive

Query: Name the outcome recorded for CCOC(=O)CCl in the assay.
Reply: inactive

Query: Name the outcome recorded for CCC(C(N)=O)N1CCCC1=O (configuration not stated) in the assay.
Reply: inactive

Query: Name the outcome recorded for O=C(Cl)/C=C/C(=O)Cl in the assay.
Reply: inactive

Query: Name the outcome recorded for CC(Cc1ccccc1)NCCn1cnc2c1c(=O)n(C)c(=O)n2C (configuration not stated) in the assay.
Reply: inactive

Query: Name the outcome recorded for C/C(=N\NC(=O)Nc1cc(F)cc(F)c1)c1ncccc1C(=O)O in the assay.
Reply: inactive

// data source = PubChem BioAssay (Tox21)
